Consider the following binders; for each one, report its kon.
# TARGET OF ASSAY: recombinant trimeric HA of H1N1 A/California/04/09 (Influenza A virus A/California/04/2009 (H1N1))
# CONDITION LABEL: remark: other sources report otherwise

Q) Please look up its kon: Fab fragment of TCN-522 (3212_I12) (Fab, V domains shown) VH: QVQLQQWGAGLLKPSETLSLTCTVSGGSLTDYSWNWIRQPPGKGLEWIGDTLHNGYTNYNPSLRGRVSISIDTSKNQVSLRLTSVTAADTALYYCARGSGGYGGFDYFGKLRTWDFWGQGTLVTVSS VL: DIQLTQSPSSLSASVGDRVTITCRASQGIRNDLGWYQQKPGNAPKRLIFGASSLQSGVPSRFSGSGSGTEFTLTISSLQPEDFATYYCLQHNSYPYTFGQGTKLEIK
A) 69800 M⁻¹ s⁻¹

Q) Same question, Fab fragment of TCN-535 (5246_P19) (Fab, V domains shown) VH: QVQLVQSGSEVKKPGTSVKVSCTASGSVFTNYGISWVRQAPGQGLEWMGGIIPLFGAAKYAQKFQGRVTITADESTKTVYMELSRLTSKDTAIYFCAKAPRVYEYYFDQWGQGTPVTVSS VL: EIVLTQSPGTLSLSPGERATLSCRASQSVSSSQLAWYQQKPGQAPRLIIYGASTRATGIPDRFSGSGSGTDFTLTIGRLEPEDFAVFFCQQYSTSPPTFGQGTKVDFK this time
A) 987000 M⁻¹ s⁻¹

Q) What do you have for Fab fragment of TCN-534 (5249_B02) (Fab, V domains shown) VH: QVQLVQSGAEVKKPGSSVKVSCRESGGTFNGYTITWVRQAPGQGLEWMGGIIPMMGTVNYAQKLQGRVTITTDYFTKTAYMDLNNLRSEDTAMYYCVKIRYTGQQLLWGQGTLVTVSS VL: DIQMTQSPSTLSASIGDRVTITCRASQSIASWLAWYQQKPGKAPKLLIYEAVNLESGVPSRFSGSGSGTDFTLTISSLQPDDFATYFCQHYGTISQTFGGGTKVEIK ?
A) 573000 M⁻¹ s⁻¹

Q) Ok, now Fab fragment of TCN-523 (5248_A17) (Fab, V domains shown) VH: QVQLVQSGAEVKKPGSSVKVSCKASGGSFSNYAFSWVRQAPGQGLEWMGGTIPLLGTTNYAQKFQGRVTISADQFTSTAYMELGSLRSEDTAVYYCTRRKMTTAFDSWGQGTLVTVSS VL: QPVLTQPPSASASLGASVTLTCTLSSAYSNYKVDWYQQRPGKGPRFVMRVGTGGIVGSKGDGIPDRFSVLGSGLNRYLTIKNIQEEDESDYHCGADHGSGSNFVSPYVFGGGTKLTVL
A) 540000 M⁻¹ s⁻¹
